FYI, the data here is from PubChem BioAssay AID1009.

Target: Induced myeloid leukemia cell differentiation protein Mcl-1 (Homo sapiens) (UniProt Q07820)
Sequence (Q07820 whole entry, looked up): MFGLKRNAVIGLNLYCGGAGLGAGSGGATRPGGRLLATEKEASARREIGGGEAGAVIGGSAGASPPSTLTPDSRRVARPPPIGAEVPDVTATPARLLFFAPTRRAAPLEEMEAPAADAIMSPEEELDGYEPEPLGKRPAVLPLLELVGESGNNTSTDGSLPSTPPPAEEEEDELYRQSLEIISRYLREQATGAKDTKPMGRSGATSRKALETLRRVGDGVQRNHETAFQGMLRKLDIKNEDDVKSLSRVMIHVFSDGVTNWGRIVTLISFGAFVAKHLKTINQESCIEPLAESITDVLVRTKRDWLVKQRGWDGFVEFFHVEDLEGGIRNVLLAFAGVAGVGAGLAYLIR
Assay: Mcl-1/Bim interaction disruptors – biochemical, bead-based flow cytometry, multiplex, primary screen (AID 1009);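 note: 0% = no compound tracer wells and 100% = peptide blocker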
Conditions: Bim peptide-Mcl-1 binding, at 10 µM, hits give high values
About 200 (0.11%) of roughly 190,000 compounds were called active. For the sample, actives were picked, then their nearest neighbours and some compounds at random.
Recorded Metric: inhibition (%)
Write the answer as a number in %, unit excluded.

What the record says about "CCOC(=O)CN1CCC(c2ccccc2)CC1" : inhibition is 2

====

# maps each entry to its inhibition
Biological target: Induced myeloid leukemia cell differentiation protein Mcl-1 (Homo sapiens) (UniProt Q07820)
Experiment: Mcl-1/Bim interaction disruptors – biochemical, bead-based flow cytometry, multiplex, primary screen (AID 1009);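 note: 0% = no compound tracer wells and 100% = peptide blocker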
Settings: Bim peptide-Mcl-1 binding, at 10 µM, hits give high values
The campaign covered roughly 190,000 compounds. About 200 (0.11%) were called active. The list comes from a sample in which actives are over-represented; it also holds close analogues and randomly drawn compounds.
// units = %; emit number, no label

{"columns": ["Molecule", "inhibition (%)"],
 "data": [
  ["Cc1ccc2nc(C)cc(N/N=C/c3ccc(F)cc3)c2c1", 0]
]}

# molecule "O=C(COc1nc2ccccc2nc1N1CCOCC1)NCC(F)(F)F" ; its inhibition = -3

Reported inhibition of "O=C(CCSc1ccccc1)N1CCN(c2ccccc2F)CC1" : -2

inhibition reading for Cc1cc(NC(=O)CN2C(=O)NC(CCc3ccccc3)C2=O)no1 (stereo unspecified) : -1

Note to self: inhibition recorded for "CCOC(=O)/C(C#N)=C/c1ccc(N2CCCCC2)cc1" was 0

Record "CC1(C)CC(=O)C(CC(=O)N2CCC(Cc3ccccc3)CC2)C(=O)C1" . Reported inhibition: 1

====

Molecular target: Induced myeloid leukemia cell differentiation protein Mcl-1 (Homo sapiens) (UniProt Q07820)
Assay: Mcl-1/Bim interaction disruptors – biochemical, bead-based flow cytometry, multiplex, primary screen (AID 1009);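 note: 0% = no compound tracer wells and 100% = peptide blocker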
Settings: Bim peptide-Mcl-1 binding, at 10 µM, hits give high values
The campaign covered roughly 190,000 compounds. About 200 (0.11%) were called active. The sample holds actives, similar compounds and a random draw of the others, so the mix is not that of the screen.
Below, each of the molecules is paired with its reported inhibition value.
Give the quantity in %, number only.

Below, 3 molecules whose answers are already recorded.
{"columns": ["Molecule", "inhibition / %"],
 "data": [
  ["CCOC(=O)c1sc(=NC(=O)/C=C/c2cccs2)n(C)c1C", 3],
  ["O=C(Nc1ccc(F)cc1)C1CCN(C(=O)c2ccc([N+](=O)[O-])cc2)CC1", 0],
  ["CC(CO)NCC12CC3CC(CC(C3)C1)C2 (stereo unspecified)", 0]
]}

Lab book: inhibition of "CC(=O)Nc1ccc(-c2csc(NC=C3C(=O)OC(C)(C)OC3=O)n2)cc1" noted as -8

The measured inhibition associated with "Cc1nc2cc(NCc3cccs3)ccc2n1C" reads -1

====

Target: Induced myeloid leukemia cell differentiation protein Mcl-1 (Homo sapiens)
Experiment: Mcl-1/Bim interaction disruptors – biochemical, bead-based flow cytometry, multiplex, primary screen (AID 1009);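 note: 0% = no compound tracer wells and 100% = peptide blocker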
Conditions: Bim peptide-Mcl-1 binding, at 10 µM
About 200 (0.11%) of roughly 190,000 compounds were called active. Cut-off read from the data, not from the text of the source: active = inhibition above about 40%. The list comes from a sample in which actives are over-represented; it also holds close analogues and randomly drawn compounds.
The categories you may choose from are TRUE = active, FALSE = inactive

Below, 3 molecules whose answers are already recorded.
{"columns": ["Molecule", "Tested Target", "Assigned Class"],
 "data": [
  ["Cc1[nH]c2ccccc2c1SCC(=O)Nc1nccs1", "Induced myeloid leukemia cell differentiation protein Mcl-1 (Homo sapiens)", "FALSE"],
  ["CC(=O)N/N=C/c1cc2c(cc1[N+](=O)[O-])OCO2", "Induced myeloid leukemia cell differentiation protein Mcl-1 (Homo sapiens)", "FALSE"],
  ["O=C(c1ccc(OC2CCN(Cc3ccccn3)CC2)cc1)N1CCCCCC1", "Induced myeloid leukemia cell differentiation protein Mcl-1 (Homo sapiens)", "FALSE"]
]}

stdin: Dear colleague, could you share the recorded outcome for CCCN=C1NC(=O)C(CC(=O)NCCc2ccc(OC)c(OC)c2)S1 (stereo not given) when you have a moment?
stdout: FALSE

stdin: Write down the call the test reported for this molecule. Item: "CC(C)(C)NC(=O)c1ccc(Cn2cc(C(F)(F)F)ccc2=O)cc1"
stdout: FALSE

stdin: Which outcome was assigned to "COCCNC(=O)COc1ccccc1C" in this test?
stdout: FALSE

stdin: Per the assay record, what outcome was assigned to CCCc1nc2c([nH]1)C(c1cccnc1)C(C#N)=C(N)O2 (stereo not given) ?
stdout: FALSE

stdin: Could you kindly confirm the outcome this assay logged for "COc1ccnc(Oc2ccccc2)c1-c1ncn[nH]1" ?
stdout: FALSE

stdin: Query: recorded result category for CC(=O)NC(NC(=S)Nc1c(C)n(C)n(-c2ccccc2)c1=O)C(Cl)(Cl)Cl (stereo not given) in this test
stdout: FALSE

stdin: For this molecule, state the assay outcome: "COc1ccc(-c2nc(CN3CCN(c4ncccn4)CC3)c(C)o2)cc1C"
stdout: FALSE

stdin: Kindly provide the recorded test outcome for the following molecule: "COC(=O)c1ccc(NC(=O)CSc2nncc3ccc(OC)c(OC)c23)cc1"
stdout: FALSE

====

Molecular target: Induced myeloid leukemia cell differentiation protein Mcl-1 (Homo sapiens) (UniProt Q07820)
Test: Mcl-1/Bim interaction disruptors – biochemical, bead-based flow cytometry, multiplex, primary screen (AID 1009);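 note: 0% = no compound tracer wells and 100% = peptide blocker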
Settings: Bim peptide-Mcl-1 binding, at 10 µM, hits give high values
Among all 190,000 compounds or so, about 200 (0.11%) were called active. Shown is part of a subset that was picked to be rich in actives.
inhibition by entry:
Give the value, in units of %, as a plain number.

Recorded inhibition, per entry:
{"columns": ["Compound", "Reported Result"],
 "data": [
  ["Cc1ccc(S(=O)(=O)Cc2cc(-c3ccc(Cl)cc3)no2)cc1", 0],
  ["O=c1[nH]c(CN2CCOCC2)nc2scc(-c3ccccc3)c12", 0],
  ["Cc1ccc(OCC(=O)NNC(=S)NCc2ccccc2)cc1", 0],
  ["Cc1c(C(=O)NC(=S)NCc2cccnc2)oc2ccccc12", 0],
  ["CC(=O)N1CCN(S(=O)(=O)c2c(F)cc(F)c(Cl)c2F)CC1", -1],
  ["COc1ccc(N2CCN(C(=O)C3CCN(S(=O)(=O)c4ccc(C)cc4)CC3)CC2)cc1", 0],
  ["COc1cccc(CNC(=O)c2n[nH]c3ccccc23)c1", 0],
  ["CN(C)c1ccc(C(CC(=O)O)C(=O)O)cc1 (configuration not stated)", -1],
  ["COc1ccc(CN(C)C(=S)Nc2ccc(Cl)cc2Cl)cc1", 1],
  ["O=C(COC(=O)CCCSc1nc2ccccc2[nH]1)Nc1ccc(Oc2ccccc2)cc1", 2]
]}

According to the records, this compound "Cc1cc(C)n2nc(SCC(=O)NC(=O)NCc3ccco3)nc2n1" displays inhibition of 0

Measured inhibition of "CC(=O)Nc1ccc(S(=O)(=O)N(C)c2ccc(OCC(=O)OCC(=O)N3CCCCC3)cc2)cc1" : -2

Entry "COc1ccc(-n2c(C)cc(C(=O)COC(=O)c3cc(OC)c(OC)cc3NC(=O)c3cccs3)c2C)cc1" , inhibition reported as -5

// inhibition lookup, compound = "CC/C(=N\NC(=S)NC(C)C)c1ccc(OC(F)F)cc1" , result: -2

// CCc1cc(C(=O)OC)c(NC(=O)CC2Sc3ccc(C(F)(F)F)cc3NC2=O)s1 (configuration not stated) : inhibition value = -1

// field: inhibition; key: "Cc1ccc(S(=O)(=O)NCCC(c2ccccc2)c2ccccc2)cc1C(=O)O" ; value = 1

The reported value for CCC(=O)N1c2ccccc2NC2=C(C(=O)CCC2)C1c1ccco1 (configuration not stated) in terms of inhibition is 0

Item: "CCN1CCN(C(=O)CN(C)S(=O)(=O)c2ccc3ccccc3c2)CC1" | inhibition: 0

"CC(C)N(C)C(=O)CCc1nnc(CCc2c[nH]c3ccccc23)o1" has a reported inhibition of -3

Memo: "COc1ccc(S(=O)(=O)NC(C)C)cc1C(=O)NC1CCCCC1" , reported inhibition: -1

Form: compound = CCCNC(=O)NC(=O)COC(=O)CC(NC(N)=O)c1ccc(Cl)cc1 (configuration not stated) ; inhibition = -8

The compound listed as "Cc1cccc(C(=O)OCC(=O)NCC(C)C)c1O" shows inhibition equal to 4

====

Molecular target: Induced myeloid leukemia cell differentiation protein Mcl-1 (Homo sapiens) (UniProt Q07820)
Assay: Mcl-1/Bim interaction disruptors – biochemical, bead-based flow cytometry, multiplex, primary screen (AID 1009);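 note: 0% = no compound tracer wells and 100% = peptide blocker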
Settings: Bim peptide-Mcl-1 binding, at 10 µM, hits give high values
The campaign covered roughly 190,000 compounds. About 200 (0.11%) were called active. The entries come from a sample that favours actives as a whole.
Listing of recorded inhibition by entry.
Give just the numeric value; % need not be written.

Known results for molecules:
{"columns": ["Molecule", "inhibition, %"],
 "data": [
  ["COc1ccc(N(CC(=O)Nc2ccc(C)cc2C)S(=O)(=O)c2ccccc2[N+](=O)[O-])c(OC)c1", 4],
  ["O=C(O)c1ccc2c3c(cccc13)C(=O)N(OS(=O)(=O)c1ccccc1)C2=O", 1],
  ["COc1cc(NC(=O)COC(=O)c2cnc(C)cn2)c(C)cc1[N+](=O)[O-]", 0]
]}

Per the records, this molecule ( O=c1cc(CO)oc(C(Nc2cccc([N+](=O)[O-])c2)c2ccccn2)c1O (stereo unspecified) ) has inhibition equal to -4

Recorded result, "Cc1nn(CC(=O)NCc2ccccn2)c(C)c1[N+](=O)[O-]" , inhibition: 0

Memo: "O=C(/C=C/c1ccc([N+](=O)[O-])cc1)NCCSCc1ccco1" , reported inhibition: -5

The measured inhibition associated with "COC(=O)c1cc(NC(=O)c2cccnc2)ccc1N1CCOCC1" reads -2

Record summary for Cc1ccc(S(=O)(=O)N(C)C)cc1NC(=O)COC(=O)C1COc2ccccc2O1 (stereo unspecified) : reported inhibition = 3

get_value(item= C=CCN(Cc1nc(-c2cc(OC)c3c(c2)OCO3)oc1C)C1CCS(=O)(=O)C1 (stereo unspecified) , readout=inhibition) returns -1

Lab note: measured inhibition of Cc1ccc2c(c1)C1CN(C)CCC1N2C(=S)Nc1ccc(OC(F)F)cc1 (stereo unspecified) was -1

The reported value for COc1ccc(C(=O)C2CCCN(Cc3cccn3-c3ccccn3)C2)c(C)c1 (stereo unspecified) in terms of inhibition is 0
